- EXPERIMENTAL TARGET: full-length beta-Catenin (Uniprot ID P35222) (Homo sapiens (Human)) (UniProt P35222)
- Sequence (P35222 2-781 limits assumed): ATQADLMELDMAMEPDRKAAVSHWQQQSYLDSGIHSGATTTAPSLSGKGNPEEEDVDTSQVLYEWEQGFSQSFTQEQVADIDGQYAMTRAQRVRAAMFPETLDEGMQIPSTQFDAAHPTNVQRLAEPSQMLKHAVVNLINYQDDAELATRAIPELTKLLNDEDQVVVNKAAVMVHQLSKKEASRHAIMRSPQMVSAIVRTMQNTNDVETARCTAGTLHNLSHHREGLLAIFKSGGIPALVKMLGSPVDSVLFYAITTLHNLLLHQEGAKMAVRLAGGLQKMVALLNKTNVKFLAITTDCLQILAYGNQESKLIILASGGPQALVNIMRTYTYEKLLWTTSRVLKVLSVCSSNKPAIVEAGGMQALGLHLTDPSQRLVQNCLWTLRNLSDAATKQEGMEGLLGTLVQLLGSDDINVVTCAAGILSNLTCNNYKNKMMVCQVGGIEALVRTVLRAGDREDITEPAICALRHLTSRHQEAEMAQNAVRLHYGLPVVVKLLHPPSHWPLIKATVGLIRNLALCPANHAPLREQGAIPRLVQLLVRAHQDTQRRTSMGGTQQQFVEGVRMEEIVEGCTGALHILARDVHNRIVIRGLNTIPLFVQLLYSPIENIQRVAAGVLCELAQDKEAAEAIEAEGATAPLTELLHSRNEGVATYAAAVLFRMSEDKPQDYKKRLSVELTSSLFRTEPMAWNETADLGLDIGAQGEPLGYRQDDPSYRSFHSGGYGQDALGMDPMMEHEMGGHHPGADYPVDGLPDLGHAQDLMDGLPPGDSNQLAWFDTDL
- ASSAY SUMMARY: fluorescence polarization competition; full-length beta-catenin + 5FAM-TCF4 10-53 probe
pIC50: −log10 of the molar value. Starred links: 1 amine or outer side, 2 acyl side, 3 side chain; linkers in the order of their positions; H or OH if unused. Positions of bridges follow the written chain, without caps; N, C: chain ends. Non-standard residues stand in square brackets, D forms with d. Primed or numbered codes have the meaning given here. PyrS2″ = (S)-3-amino-1-((pent-4-en-1-yloxy)carbonyl)pyrrolidine-3-carboxylic acid (stapling residue), C=CCCCOC(=O)N1CC[C@@](N[*:1])(C(=O)[*:2])C1; B5(4) = 2,2-bis(4-pentenyl)glycine = 2-amino-2-(pent-4-en-1-yl)hept-6-enoic acid (stitching residue), C=CCCCC(CCCC=C)(N[*:1])C(=O)[*:2]; Phe(2-Cl) = N[C@@H](Cc1ccccc1Cl)C(=O)O; Bta = N[C@@H](Cc1csc2ccccc12)C(=O)O; αAllylPro = C=CC[C@@]1(C(=O)O)CCCN1; tBuAla = CC(C)(C)C[C@H](N)C(=O)O; Cha = N[C@@H](CC1CCCCC1)C(=O)O; Thr(ol) = C[C@@H](O)[C@H](N)CO
OBSERVED PROPERTY: pIC50

Ac-[αAllylPro]D[tBuAla][B5(4)]DDAAFF[PyrS2″][Phe(2-Cl)][Bta][Thr(ol)] (staple 1-4, 4-11) [I-1311]: 7.42

(a) Ac-[αAllylPro]D[Cha][B5(4)]DDAAFL[PyrS2″][Phe(2-Cl)][Bta][Thr(ol)] (staple 1-4, 4-11) [I-1307]
(b) Ac-[αAllylPro]D[tBuAla][B5(4)]DTAAFT[PyrS2″][Phe(2-Cl)][Bta][Thr(ol)] (staple 1-4, 4-11) [I-1309]
(c) Ac-[αAllylPro]D[Cha][B5(4)]DTAAFT[PyrS2″][Phe(2-Cl)][Bta][Thr(ol)] (staple 1-4, 4-11) [I-1310]
Problem: Order the entries by their reported pIC50, beginning at the minimum. When ranking, write the labels in the order the request describes.
Result: c, b, a
